- experiment_description: qHTS of pediatric cancer cell lines to identify multiple opportunities for drug repurposing: Primary screen for Rh30 cells (AID 1347107); note: nearly all actives have a fitted effect of over 75% in size
- experimental_setup: Rh30 rhabdomyosarcoma viability, CellTiter-Glo luminescence, 48 h; series mostly up to 46 µM
Inconclusive results are not listed. The source made the active and inactive calls. Calls come from the whole dose curve; as a rule, active = well fitted cell-killing curve with a large enough effect; inconclusive = small, poorly fitted or top-dose-only effect; inactive = no such curve, though single readings can be large or run the other way.
Field 'call' accepts yes = active, no = inactive

The examples below pair each entry with its known result.
Cc1ncc([N+](=O)[O-])n1CCO = no
CC(=O)CC(c1ccccc1)c1c(O)c2ccccc2oc1=O (stereo not given) = no

In this assay, the call recorded for `O[C@@H](CNC[C@H](O)[C@H]1CCc2cc(F)ccc2O1)[C@@H]1CCc2cc(F)ccc2O1` was what? no

In this assay, the call recorded for `CCc1cc(C(N)=S)ccn1` was what? no

In this assay, the call recorded for `Cc1cc(NS(=O)(=O)c2ccc(N)cc2)no1` was what? no

In this assay, the call recorded for CCN(CC)CC#CCOC(=O)C(O)(c1ccccc1)C1CCCCC1 (stereo not given) was what? no

In this assay, the call recorded for CC(C(=O)O)c1ccc2c(c1)CC(=O)c1ccccc1S2 (stereo not given) was what? no

In this assay, the call recorded for `CCCCCCNC(=O)n1cc(F)c(=O)[nH]c1=O` was what? no

In this assay, the call recorded for `CNS(=O)(=O)Cc1ccc2[nH]cc(CCN(C)C)c2c1` was what? no

In this assay, the call recorded for `N[C@@H](Cc1ccc(O)c(O)c1)C(=O)O` was what? no

In this assay, the call recorded for `COc1cc2c(Nc3ccc(Br)cc3F)ncnc2cc1OCC1CCN(C)CC1` was what? no

In this assay, the call recorded for `NC1(c2ccc(-c3nc4ccn5c(=O)[nH]nc5c4cc3-c3ccccc3)cc2)CCC1` was what? yes

In this assay, the call recorded for `COc1ncnc(NS(=O)(=O)c2ccc(N)cc2)c1OC` was what? no

In this assay, the call recorded for CC(C)NCC(O)c1ccc(NS(C)(=O)=O)cc1 (stereo not given) was what? no
